Biological target: panel of 203 kinases (Homo sapiens)
Construct: purchased DiscoverX (KINOMEscan)
Test: KINOMEscan competitive binding, whole panel
Details: 10 µM, n=1; kinase LTK; read-out: Percent inhibition LTK
Please respond with reported inhibition at 10 µM for every item in the list.
# unit: % | format: bare number

Form: item Cc1ccc(O)cc1Nc1ccnc(Nc2cccc(C(N)=O)c2)n1 ; test system panel of 203 kinases (Homo sapiens); inhibition at 10 µM: 0

Form: item Clc1ccc(Nc2ncc(-c3ccccc3)s2)cc1 ; test system panel of 203 kinases (Homo sapiens); inhibition at 10 µM: 0

Form: item Cc1ccc(O)cc1N(C)c1ccnc(Nc2cccc(S(N)(=O)=O)c2)n1 ; test system panel of 203 kinases (Homo sapiens); inhibition at 10 µM: 69.7

Form: item C[C@@H](Oc1cc(-c2cnc3ccccn23)sc1C(N)=O)c1ccccc1Cl ; test system panel of 203 kinases (Homo sapiens); inhibition at 10 µM: 0

Form: item COc1cc(Nc2nccc(-c3sc(N)nc3-c3cccc(NC(=O)c4c(F)cccc4F)c3)n2)cc(OC)c1OC ; test system panel of 203 kinases (Homo sapiens); inhibition at 10 µM: 0

Form: item CN1CCN(c2ccc(Nc3nccc(-c4cnn5ncccc45)n3)cc2C#N)CC1 ; test system panel of 203 kinases (Homo sapiens); inhibition at 10 µM: 0

Form: item COc1ccc(Nc2nccc(-c3cnn4ncccc34)n2)cc1 ; test system panel of 203 kinases (Homo sapiens); inhibition at 10 µM: 80.8

Form: item c1ccc(COc2cccc(-c3ccnc4[nH]ccc34)c2)cc1 ; test system panel of 203 kinases (Homo sapiens); inhibition at 10 µM: 0

Form: item Nc1ncc2c(-c3ccncc3)c[nH]c2n1 ; test system panel of 203 kinases (Homo sapiens); inhibition at 10 µM: 0

Form: item Fc1cccc(COc2ccc(Nc3ncnc4c3CN(CCN3CCOCC3)CC4)cc2Cl)c1 ; test system panel of 203 kinases (Homo sapiens); inhibition at 10 µM: 0

----------
Molecular target: panel of 203 kinases (Homo sapiens)
Construct: purchased DiscoverX (KINOMEscan)
Assay: KINOMEscan competitive binding, whole panel
Conditions: 10 µM, n=1; kinase MYLK2; read-out: Percent inhibition MYLK2
Please respond with reported inhibition at 10 µM for every item in the list.
# unit: % | format: bare number

Form: item Fc1cccc(COc2ccc(Nc3ncnc4c3CN(CCN3CCOCC3)CC4)cc2Cl)c1 ; test system panel of 203 kinases (Homo sapiens); inhibition at 10 µM: 0

Form: item CN1CCN(c2ccc(Nc3nccc(-c4cnn5ncccc45)n3)cc2C#N)CC1 ; test system panel of 203 kinases (Homo sapiens); inhibition at 10 µM: 96.8

Form: item Nc1ncc2c(-c3ccncc3)c[nH]c2n1 ; test system panel of 203 kinases (Homo sapiens); inhibition at 10 µM: 84.9

Form: item C[C@@H](Oc1cc(-c2cnc3ccccn23)sc1C(N)=O)c1ccccc1Cl ; test system panel of 203 kinases (Homo sapiens); inhibition at 10 µM: 66.5

Form: item Cc1ccc(O)cc1N(C)c1ccnc(Nc2cccc(S(N)(=O)=O)c2)n1 ; test system panel of 203 kinases (Homo sapiens); inhibition at 10 µM: 0

Form: item COc1cc(Nc2nccc(-c3sc(N)nc3-c3cccc(NC(=O)c4c(F)cccc4F)c3)n2)cc(OC)c1OC ; test system panel of 203 kinases (Homo sapiens); inhibition at 10 µM: 97

Form: item Cc1ccc(O)cc1Nc1ccnc(Nc2cccc(C(N)=O)c2)n1 ; test system panel of 203 kinases (Homo sapiens); inhibition at 10 µM: 83.2

Form: item Clc1ccc(Nc2ncc(-c3ccccc3)s2)cc1 ; test system panel of 203 kinases (Homo sapiens); inhibition at 10 µM: 0

Form: item COc1ccc(Nc2nccc(-c3cnn4ncccc34)n2)cc1 ; test system panel of 203 kinases (Homo sapiens); inhibition at 10 µM: 80.5

Form: item c1ccc(COc2cccc(-c3ccnc4[nH]ccc34)c2)cc1 ; test system panel of 203 kinases (Homo sapiens); inhibition at 10 µM: 0

----------
Target: panel of 203 kinases (Homo sapiens)
Construct: purchased DiscoverX (KINOMEscan)
Assay: KINOMEscan competitive binding, whole panel
Settings: 10 µM, n=1; kinase DAPK2; read-out: Percent inhibition DAPK2
measured_endpoint: inhibition at 10 µM (%)
# unit: % | format: bare number

// field: inhibition at 10 µM; key: Fc1cccc(COc2ccc(Nc3ncnc4c3CN(CCN3CCOCC3)CC4)cc2Cl)c1 [Compound 6] ; value = 0

// field: inhibition at 10 µM; key: Cc1ccc(O)cc1Nc1ccnc(Nc2cccc(C(N)=O)c2)n1 [Compound 3] ; value = 0

// field: inhibition at 10 µM; key: COc1ccc(Nc2nccc(-c3cnn4ncccc34)n2)cc1 [Compound 2] ; value = 0

// field: inhibition at 10 µM; key: Cc1ccc(O)cc1N(C)c1ccnc(Nc2cccc(S(N)(=O)=O)c2)n1 [Compound 4] ; value = 0

// field: inhibition at 10 µM; key: Nc1ncc2c(-c3ccncc3)c[nH]c2n1 [Compound 11] ; value = 0

// field: inhibition at 10 µM; key: c1ccc(COc2cccc(-c3ccnc4[nH]ccc34)c2)cc1 [Compound 9] ; value = 0

// field: inhibition at 10 µM; key: COc1cc(Nc2nccc(-c3sc(N)nc3-c3cccc(NC(=O)c4c(F)cccc4F)c3)n2)cc(OC)c1OC [Compound 7] ; value = 0

// field: inhibition at 10 µM; key: Clc1ccc(Nc2ncc(-c3ccccc3)s2)cc1 [Compound 10] ; value = 0

// field: inhibition at 10 µM; key: C[C@@H](Oc1cc(-c2cnc3ccccn23)sc1C(N)=O)c1ccccc1Cl [Compound 8] ; value = 88.3

// field: inhibition at 10 µM; key: CN1CCN(c2ccc(Nc3nccc(-c4cnn5ncccc45)n3)cc2C#N)CC1 [Compound 1] ; value = 92.2

----------
Target: panel of 203 kinases (Homo sapiens, UniProt P00519)
Construct: purchased DiscoverX (KINOMEscan)
Sequence (P00519 whole entry): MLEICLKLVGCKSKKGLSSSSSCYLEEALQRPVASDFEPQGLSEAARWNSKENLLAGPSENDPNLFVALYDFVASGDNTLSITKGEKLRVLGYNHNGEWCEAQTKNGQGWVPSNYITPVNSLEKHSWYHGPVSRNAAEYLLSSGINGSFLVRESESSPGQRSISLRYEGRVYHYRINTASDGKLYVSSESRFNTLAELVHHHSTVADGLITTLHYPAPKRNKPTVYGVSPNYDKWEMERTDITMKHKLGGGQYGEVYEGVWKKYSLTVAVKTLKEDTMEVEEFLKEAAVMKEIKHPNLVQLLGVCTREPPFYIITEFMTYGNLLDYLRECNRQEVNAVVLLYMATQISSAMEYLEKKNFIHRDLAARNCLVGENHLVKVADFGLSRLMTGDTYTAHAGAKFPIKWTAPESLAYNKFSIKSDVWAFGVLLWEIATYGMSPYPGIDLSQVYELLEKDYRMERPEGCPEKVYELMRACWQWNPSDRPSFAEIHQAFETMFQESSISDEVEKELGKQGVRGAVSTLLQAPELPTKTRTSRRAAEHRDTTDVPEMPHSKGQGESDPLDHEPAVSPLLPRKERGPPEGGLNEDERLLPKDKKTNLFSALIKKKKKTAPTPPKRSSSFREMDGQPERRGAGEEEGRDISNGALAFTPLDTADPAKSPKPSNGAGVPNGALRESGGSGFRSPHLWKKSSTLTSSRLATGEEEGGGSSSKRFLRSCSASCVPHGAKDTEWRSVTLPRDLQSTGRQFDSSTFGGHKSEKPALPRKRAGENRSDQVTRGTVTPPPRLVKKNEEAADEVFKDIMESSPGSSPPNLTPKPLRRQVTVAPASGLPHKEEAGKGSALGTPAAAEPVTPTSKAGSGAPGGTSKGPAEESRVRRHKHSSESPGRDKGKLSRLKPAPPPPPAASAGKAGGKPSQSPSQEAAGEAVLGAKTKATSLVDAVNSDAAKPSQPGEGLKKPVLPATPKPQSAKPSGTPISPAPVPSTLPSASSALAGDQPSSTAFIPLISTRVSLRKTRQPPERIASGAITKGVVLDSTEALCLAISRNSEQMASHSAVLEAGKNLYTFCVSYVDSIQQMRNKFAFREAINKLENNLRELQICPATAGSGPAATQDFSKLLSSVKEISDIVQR
Experiment: KINOMEscan competitive binding, whole panel
Conditions: 10 µM, n=1; kinase ABL1; read-out: Percent inhibition ABL1
measured_endpoint: inhibition at 10 µM

Form: item C[C@@H](Oc1cc(-c2cnc3ccccn23)sc1C(N)=O)c1ccccc1Cl ; test system panel of 203 kinases (Homo sapiens, UniProt P00519); inhibition at 10 µM: 0%

Form: item Nc1ncc2c(-c3ccncc3)c[nH]c2n1 ; test system panel of 203 kinases (Homo sapiens, UniProt P00519); inhibition at 10 µM: 0%

Form: item Clc1ccc(Nc2ncc(-c3ccccc3)s2)cc1 ; test system panel of 203 kinases (Homo sapiens, UniProt P00519); inhibition at 10 µM: 0%

Form: item CN1CCN(c2ccc(Nc3nccc(-c4cnn5ncccc45)n3)cc2C#N)CC1 ; test system panel of 203 kinases (Homo sapiens, UniProt P00519); inhibition at 10 µM: 87.3%

Form: item COc1cc(Nc2nccc(-c3sc(N)nc3-c3cccc(NC(=O)c4c(F)cccc4F)c3)n2)cc(OC)c1OC ; test system panel of 203 kinases (Homo sapiens, UniProt P00519); inhibition at 10 µM: 99.7%

Form: item Cc1ccc(O)cc1N(C)c1ccnc(Nc2cccc(S(N)(=O)=O)c2)n1 ; test system panel of 203 kinases (Homo sapiens, UniProt P00519); inhibition at 10 µM: 99.8%

Form: item c1ccc(COc2cccc(-c3ccnc4[nH]ccc34)c2)cc1 ; test system panel of 203 kinases (Homo sapiens, UniProt P00519); inhibition at 10 µM: 0%

Form: item Fc1cccc(COc2ccc(Nc3ncnc4c3CN(CCN3CCOCC3)CC4)cc2Cl)c1 ; test system panel of 203 kinases (Homo sapiens, UniProt P00519); inhibition at 10 µM: 0%

Form: item COc1ccc(Nc2nccc(-c3cnn4ncccc34)n2)cc1 ; test system panel of 203 kinases (Homo sapiens, UniProt P00519); inhibition at 10 µM: 0%

Form: item Cc1ccc(O)cc1Nc1ccnc(Nc2cccc(C(N)=O)c2)n1 ; test system panel of 203 kinases (Homo sapiens, UniProt P00519); inhibition at 10 µM: 99.7%

----------
Target: panel of 203 kinases (Homo sapiens, UniProt P49761)
Construct: purchased DiscoverX (KINOMEscan)
Sequence (P49761 whole entry): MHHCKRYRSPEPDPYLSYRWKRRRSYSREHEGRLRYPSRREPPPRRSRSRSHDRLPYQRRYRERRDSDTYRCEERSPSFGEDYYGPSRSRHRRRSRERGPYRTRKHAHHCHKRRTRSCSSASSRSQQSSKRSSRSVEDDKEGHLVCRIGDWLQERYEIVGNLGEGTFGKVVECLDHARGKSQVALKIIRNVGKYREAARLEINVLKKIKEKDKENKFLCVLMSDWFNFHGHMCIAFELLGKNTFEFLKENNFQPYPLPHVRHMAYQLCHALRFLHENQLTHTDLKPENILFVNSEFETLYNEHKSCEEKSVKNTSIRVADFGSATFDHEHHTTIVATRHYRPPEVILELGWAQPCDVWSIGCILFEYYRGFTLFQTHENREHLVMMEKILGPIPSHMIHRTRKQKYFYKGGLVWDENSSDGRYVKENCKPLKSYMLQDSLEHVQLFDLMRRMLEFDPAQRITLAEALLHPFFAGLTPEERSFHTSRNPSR
Experiment: KINOMEscan competitive binding, whole panel
Conditions: 10 µM, n=1; kinase CLK3; read-out: Percent inhibition CLK3
measured_endpoint: inhibition at 10 µM (%)
# unit: % | format: bare number

// field: inhibition at 10 µM; key: Fc1cccc(COc2ccc(Nc3ncnc4c3CN(CCN3CCOCC3)CC4)cc2Cl)c1 [Compound 6] ; value = 0

// field: inhibition at 10 µM; key: COc1ccc(Nc2nccc(-c3cnn4ncccc34)n2)cc1 [Compound 2] ; value = 94.8

// field: inhibition at 10 µM; key: CN1CCN(c2ccc(Nc3nccc(-c4cnn5ncccc45)n3)cc2C#N)CC1 [Compound 1] ; value = 98.7

// field: inhibition at 10 µM; key: COc1cc(Nc2nccc(-c3sc(N)nc3-c3cccc(NC(=O)c4c(F)cccc4F)c3)n2)cc(OC)c1OC [Compound 7] ; value = 0

// field: inhibition at 10 µM; key: Nc1ncc2c(-c3ccncc3)c[nH]c2n1 [Compound 11] ; value = 84.9

// field: inhibition at 10 µM; key: c1ccc(COc2cccc(-c3ccnc4[nH]ccc34)c2)cc1 [Compound 9] ; value = 0

// field: inhibition at 10 µM; key: Clc1ccc(Nc2ncc(-c3ccccc3)s2)cc1 [Compound 10] ; value = 0

// field: inhibition at 10 µM; key: C[C@@H](Oc1cc(-c2cnc3ccccn23)sc1C(N)=O)c1ccccc1Cl [Compound 8] ; value = 0

// field: inhibition at 10 µM; key: Cc1ccc(O)cc1Nc1ccnc(Nc2cccc(C(N)=O)c2)n1 [Compound 3] ; value = 0

// field: inhibition at 10 µM; key: Cc1ccc(O)cc1N(C)c1ccnc(Nc2cccc(S(N)(=O)=O)c2)n1 [Compound 4] ; value = 70.5
